// data source = PubChem BioAssay (NCI)

Measured GI50 values are reported for all entries that follow.
system: OVCAR-4 ovarian; test: NCI tumour cell line growth inhibition, 48 h

[
  {
    "chemicalSmiles": "CCOC(=O)C(Cc1c[nH]c2c(N(CCO)CCO)cccc12)(NC(C)=O)C(=O)OCC",
    "experimentalSystem": "OVCAR-4 ovarian",
    "GI50": "196 µM"
  },
  {
    "chemicalSmiles": "COc1ccc2c(=O)cc(-c3ccccc3)[nH]c2c1",
    "experimentalSystem": "OVCAR-4 ovarian",
    "GI50": "3.28 µM"
  },
  {
    "chemicalSmiles": "COc1ccc2cc(/C=C/C(=O)c3ccc(Cl)cc3Cl)ccc2c1",
    "experimentalSystem": "OVCAR-4 ovarian",
    "GI50": "74.1 µM"
  },
  {
    "chemicalSmiles": "Cn1c(C(=O)c2ccncc2)cc2ccccc21",
    "experimentalSystem": "OVCAR-4 ovarian",
    "GI50": "> 100 µM"
  },
  {
    "chemicalSmiles": "O=C(Nc1cc(C(F)(F)F)ccc1Cl)c1ccc(NC2=C(Cl)C(=O)N(Cc3ccccc3)C2=O)cc1",
    "experimentalSystem": "OVCAR-4 ovarian",
    "GI50": "47.4 µM"
  },
  {
    "chemicalSmiles": "COC(=O)c1cc2c3ccccc3n3c(=O)c4cc5ccc(N(S(=O)(=O)c6ccc(C)cc6)S(=O)(=O)c6ccc(C)cc6)cc5nc4c(n1)c23",
    "experimentalSystem": "OVCAR-4 ovarian",
    "GI50": "> 100 µM"
  },
  {
    "chemicalSmiles": "COc1cc(F)c(F)c(Nc2ccc(I)cc2F)c1NS(=O)(=O)C1(C[C@H](O)CO)CC1",
    "experimentalSystem": "OVCAR-4 ovarian",
    "GI50": "3.44 µM"
  },
  {
    "chemicalSmiles": "Nc1nonc1-c1nc2cnccc2n1C1CC1",
    "experimentalSystem": "OVCAR-4 ovarian",
    "GI50": "7.4 µM"
  },
  {
    "chemicalSmiles": "COc1cc2ncn(-c3cc(OCc4ccccc4C(F)(F)F)c(C(=O)N(C)C)s3)c2cc1OC",
    "experimentalSystem": "OVCAR-4 ovarian",
    "GI50": "18.1 µM"
  }
]

Read the next record carefully.
Task: Give me measured GI50, please, for this compound: `COc1ccc(-c2ccncc2)cc1C(N)=O`
Result: > 25 µM

* * *

system: MOLT-4 leukemia; assay: NCI tumour cell line growth inhibition, 48 h
Entries and their TGI

[
  {
    "compound": "O=S(=O)(NC1=NCCN1C(=S)SN1CCn2c1nsc2=S)c1cccc2ccccc12",
    "TGI": "60.3 µM"
  },
  {
    "compound": "CC(=O)Nc1ccc(C(=O)NN2C(=O)C(Cl)/C2=C/c2ccco2)cc1 (stereo unspecified)",
    "TGI": "> 100 µM"
  },
  {
    "compound": "c1ccc2c(c1)c1c(n2CCOCCN2CCCC2)CCCC1",
    "TGI": "34.3 µM"
  }
]

Task: Respond only with TGI recorded for `Nc1nc(Cl)c(N)c(NCC2(CO)CC2)n1`
Result: > 100 µM

Task: Tell me measured TGI for `c1cc2c(cc1NC1=NCCO1)OCO2` please.
Result: > 100 µM
